Sourced from PubChem BioAssay (NCI)

Below: a set of entries, each annotated with reported growth inhibition.
- test-description: NCI Yeast Anticancer Drug Screen. Data for the sgs1 mgt1 strain (AID 161);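 note: 0% = growth of cultures given vehicle only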
- experimental-conditions: S. cerevisiae sgs1 mgt1 strain, at 50.0 µM, stronger effect = higher value
Compounds without any hit were thinned out: in the full panel of roughly 79,000, 15% have a hit.
Only the number, expressed in %, is required.

// worked examples, growth inhibition included
molecule	value
O=C1/C(=C/c2ccccc2)CCCc2ccccc21	86
Cc1cccc(/C=N/Nc2cc(C)c3ccccc3n2)n1	97.8
O=c1cccccc1O	93.3
CN(C)c1nc(=NCc2ccccc2)ss1	72.5
c1ccc(NCCSc2nc3ccccc3s2)cc1	26
O=C1NOCC1N=Cc1cc(Cl)ccc1O (configuration not stated)	26.9

# next molecule below
QUERY: Quick one: growth inhibition for [N-]=[N+]=Nc1c(Cc2ccccc2)c(=O)oc2ccccc12 ?
RESULT: 75.7

###

- test-description: NCI Yeast Anticancer Drug Screen. Data for the mec2-1 strain (AID 157)
- experimental-conditions: S. cerevisiae mec2-1 strain, at 50.0 µM (retest, dose inferred, filed as 5.0)
- Procedure: Growth inhibition of yeast strains with defined genetic alterations is measured as a screen for potential anti-cancer activity. Selected strains with alterations in DNA damage repair or cell cycle control were exposed to compounds and growth inhibition was measured relative to vehicle treated controls. The strain used in this assay is mec2-1
The panel holds about 79,000 compounds, 15% with a hit somewhere; the sample as a whole holds those more often. The source made the active and inactive calls. No stated cut-off is given here; in the data, active means growth inhibition above about 70%; inactive means the rest.
I would appreciate it if you answered using one of these outcomes: yes (1) (active), no (0) (inactive)

Solved entries (count: 5):
molecule	group-label
COc1ccc2c(c1)[n+]([O-])c(-c1ccccc1)c(N)[n+]2[O-]	yes (1)
OC(Cc1ccccc1)(c1ccccc1)C(O)(Cc1ccccc1)c1ccccc1 (centres undefined)	no (0)
CC(=O)OC1CCC2(C)C3CCC4(C)C(C(C)CCCC(C)C)CCC4C3CCC23OC13C (centres undefined)	no (0)
CC(C)Cc1ncc(CC(C)C)n(O)c1=O	yes (1)
CCC(c1ccc(O)cc1)C(CC)c1ccc(O)c(O)c1 (centres undefined)	yes (1)

QUERY: Per the assay record, what outcome was assigned to O=[N+]([O-])c1ccc2c(c1)Cc1cc(O)c(I)cc1-2 ?
RESULT: yes (1)

QUERY: Per the assay record, what outcome was assigned to [NH-]c1ccccc1[S-].[NH-]c1ccccc1[S-].[Zn] ?
RESULT: yes (1)

QUERY: Per the assay record, what outcome was assigned to N#CCC1CC(=O)c2[nH]c3ccccc3c2C1 (centres undefined) ?
RESULT: no (0)

QUERY: Per the assay record, what outcome was assigned to CC(C)(C)c1ccc(OC(=O)Nc2ccc(Cl)cc2[N+](=O)[O-])c(Br)c1 ?
RESULT: no (0)

QUERY: Per the assay record, what outcome was assigned to Oc1c(Cl)c2ccccc2c2ccccc12 ?
RESULT: no (0)

QUERY: Per the assay record, what outcome was assigned to Nc1c(O)c(Cl)cc(Cl)c1Cl ?
RESULT: yes (1)

QUERY: Per the assay record, what outcome was assigned to COc1cccc(N2C(=O)C3CC(CC(C)(C)C)c4c([nH]c5ccccc45)C3C2=O)c1 (centres undefined) ?
RESULT: no (0)

QUERY: Per the assay record, what outcome was assigned to O=C(CSC1=NNC2(C(=O)N1)c1ccccc1-c1ccccc12)NC(=S)Nc1ccccc1 ?
RESULT: yes (1)

QUERY: Per the assay record, what outcome was assigned to N#C/C=C(\c1ccccc1)c1c[nH]c2ccccc12 ?
RESULT: yes (1)

###

- test-description: NCI Yeast Anticancer Drug Screen. Data for the mlh1 rad18 strain (AID 175)
- experimental-conditions: S. cerevisiae mlh1 rad18 strain growth inhibition; at 50.0 µM
This is part of a sample that, as a whole, favours compounds with a hit. Of some 79,000 tested, about 15% had one in any assay. Calls of active or inactive are those of the source. Cut-off read from the data, not from the text of the source: active = growth inhibition above about 70%; inactive = the rest.
I would appreciate it if you answered using one of these outcomes: true = active, false = inactive

Solved entries (count: 2):
compound	group-label
O=C(NNc1ccc(F)cc1)C12CC3CC(CC(C3)C1)C2	false
Oc1ccc(CNCc2ccccc2)c2cccnc12	true

# input for lookup
QUERY: Per the assay record, what outcome was assigned to Cc1cccc(C)c1N1C(=O)C(=O)C(c2nc3ccccc3s2)/C(=N/NC(=O)c2ccccc2O)C1=O (stereo not drawn) ?
RESULT: false

###

- test-description: NCI Yeast Anticancer Drug Screen. Data for the cln2 rad14 strain (AID 165);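 note: 0% = growth equal to vehicle treated cultures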
- experimental-conditions: S. cerevisiae cln2 rad14 strain, at 50.0 µM, stronger effect = higher value
This is part of a sample that, as a whole, favours compounds with a hit. Of some 79,000 tested, about 15% had one in any assay.
Below: a set of entries, each annotated with reported growth inhibition.
Only the number, expressed in %, is required.

// worked examples, growth inhibition included
smiles-entry	value
O=C(O)c1ccc2c3c(ncnc13)-c1ccccc1C2=O	34.5
CCCCCCCCCCCCCCCCN(CC)CC	99.3
COC(=O)c1nc(=S)[nH]c(C(=O)OC)c1C(=O)c1ccccn1	70.5

# next compound below
QUERY: Quick one: growth inhibition for O=c1[nH]c2c([N+](=O)[O-])cc(Cl)cc2nc1/C=C(\O)c1ccccc1 ?
RESULT: 45.4

###

- test-description: NCI Yeast Anticancer Drug Screen. Data for the cln2 rad14 strain (AID 165);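 note: 0% = growth equal to vehicle treated cultures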
- experimental-conditions: S. cerevisiae cln2 rad14 strain, at 50.0 µM, stronger effect = higher value
About 79,000 compounds went through this panel and 15% of them were active in at least one assay; those are over-represented in the sample as a whole.
I would appreciate it if you labelled entries True when growth inhibition is 70% or higher, otherwise False.

Solved entries (count: 8):
compound	group-label
CCC(CC)(C(=O)Nc1ccc2c(c1)c(=O)c1ccccc1n2C)C(=O)Nc1ccc2c(c1)c(=O)c1ccccc1n2C	True
CC(CN(CC(=O)O)CC(=O)O)N(CC(=O)O)CC(=O)O.[Cl][Pd][Cl] (stereo not given)	False
COc1ccc(-c2c(C#N)c(-c3ccc(C)cc3)n(NS(=O)(=O)c3ccc(C)cc3)c(=O)c2C#N)cc1	False
OC(CNc1ccnc2cc(Cl)ccc12)CNc1ccnc2cc(Cl)ccc12	False
Cc1c2ccncc2cc2c3ccccc3n(C)c12	True
O=C(NCCN1CCN2Cc3[nH]c4ccccc4c3CC2C1)c1ccc(Cl)cc1 (stereo not given)	False
O=C(O)Cc1ccccc1CCc1ccccc1Cl	True
CCC(c1cccc(O)c1)C(CC)c1cccc(O)c1 (stereo not given)	False

QUERY: Confirm if growth inhibition reported for the compound COc1ccccc1/C=C1\S/C(=N/Nc2nc(C)c(C(C)=O)s2)NC1=O is 70% or above.
RESULT: False

QUERY: Confirm if growth inhibition reported for the compound c1ccc(CCc2c[nH]c3ccccc23)cc1 is 70% or above.
RESULT: False

QUERY: Confirm if growth inhibition reported for the compound O=C(O)CCC(=O)c1ccc(C2CCCC2)c2ccccc12 is 70% or above.
RESULT: True

QUERY: Confirm if growth inhibition reported for the compound C/C=C1\SC(=S)NC1=O is 70% or above.
RESULT: True

QUERY: Confirm if growth inhibition reported for the compound O=C(CNC(=O)c1ccccc1)Oc1c(Cl)c(Cl)c(Cl)c(Cl)c1Cl is 70% or above.
RESULT: False

QUERY: Confirm if growth inhibition reported for the compound CC(=O)OCC(=O)[C@@]1(O)[C@H](C)C[C@H]2[C@@H]3C=C(C)C4=Cc5c(cnn5-c5ccccc5)C[C@]4(C)[C@@]3(F)[C@@H](O)C[C@@]21C is 70% or above.
RESULT: True

QUERY: Confirm if growth inhibition reported for the compound Cn1c2ccccc2c2nnc(N/N=C/c3ccccn3)nc21 is 70% or above.
RESULT: True

QUERY: Confirm if growth inhibition reported for the compound COc1ccc(/C=c2\sc3nnc(CCC(=O)Nc4cccc(C(F)(F)F)c4)n3c2=O)cc1 is 70% or above.
RESULT: False

QUERY: Confirm if growth inhibition reported for the compound CCCCN(CCCC)Cc1cc(Nc2c3ccc(Cl)cc3nc3ccc(OC)cc23)ccc1O is 70% or above.
RESULT: True

QUERY: Confirm if growth inhibition reported for the compound S=C(NC(=S)Nc1ccc(Cl)cc1)Nc1ccc(Cl)cc1 is 70% or above.
RESULT: False

QUERY: Confirm if growth inhibition reported for the compound CC1CCC(C(C)C2C(O)CC3C4CC=C5CC(O)CCC5(C)C4CCC32C)NC1 (stereo not given) is 70% or above.
RESULT: False

QUERY: Confirm if growth inhibition reported for the compound CCCCCCCCC(C)c1ccccc1O (stereo not given) is 70% or above.
RESULT: True

###

- test-description: NCI Yeast Anticancer Drug Screen. Data for the bub3 strain (AID 167)
- experimental-conditions: S. cerevisiae bub3 mutant strain, at 50.0 µM, stronger effect = higher value
This is part of a sample that, as a whole, favours compounds with a hit. Of some 79,000 tested, about 15% had one in any assay.
assay-metric: growth inhibition (%)
Only the number, expressed in %, is required.

// worked examples, growth inhibition included
compound	unit-text	value
CCC(=O)c1ccc2ccc3ccccc3c2c1	%	68.8
CN(C=O)c1ccc2c(c1)Cc1ccccc1-2	%	22.2
NNC(=O)c1c(SCc2ccccc2)nc2c3ccccc3ccn12	%	39.1
CSc1ccc(/C=N/NC(N)=S)cc1	%	86.5
CC(NNC(=S)N(C)C1CCCCC1)c1cc2ccccc2cn1 (stereo not drawn)	%	84
O=C1CC(c2ccccc2)C(=O)N2C(=O)CC(c3ccccc3)C(=O)N12 (stereo not drawn)	%	71.5

QUERY: Quick one: growth inhibition for COC(=O)c1cc(=O)n(-c2ccccc2OC)c(SC)n1 ?
RESULT: 94.8

QUERY: Quick one: growth inhibition for CCN(CC)CCCNc1c(O)cc(C)c2sc3ccccc3c(=O)c12 ?
RESULT: 98.4

QUERY: Quick one: growth inhibition for O=C1C=CC(=O)c2c(O)c(N3CCC[C@H]3CO)c(Cl)c(O)c21 ?
RESULT: 34.5

QUERY: Quick one: growth inhibition for Cc1ccc(N2C(=O)C(C)SC23C(=O)Nc2ccc(Cl)cc23)cc1 (stereo not drawn) ?
RESULT: 98.8

QUERY: Quick one: growth inhibition for CCOC(=O)C(CCSC)C(=O)OCC ?
RESULT: -2.4

QUERY: Quick one: growth inhibition for NC(=S)N/N=C\c1nccc2c(C(F)(F)C(F)(F)C(F)(F)F)cccc12 ?
RESULT: 75.6

QUERY: Quick one: growth inhibition for CC1(C(Cl)(Cl)Cl)C=CC(O)(C#CC2(O)C=CC(C)(C(Cl)(Cl)Cl)C=C2)C=C1 (stereo not drawn) ?
RESULT: 95.4
